system: Human peripheral blood mononuclear cells (PBMC); assay: Cytokine Induction in Human Cells (PBMC; IFN-alpha by ELISA, IFN-gamma and TNF-alpha by multiplex bead assay); format: cell-based; details: 21-24 hrs culture, ELISA, lowest concentration inducing cytokine at least 2× greater than negative control
Counter-ions that a name gives are not always drawn.
QUANTITY: MEC to Induce Cytokine IFN-alpha (µM)
Quick note: give the figure in µM, leave out the unit.

Request: Which MEC to Induce Cytokine IFN-alpha value belongs to CCCCc1nc2c(N)nc3ccccc3c2n1CCOCCNC(=O)c1ccc(CNC(=N)N)cc1 [Example 2, dihydrochloride] ?
Response: 1.2

Request: How about this molecule: CCCCc1nc2c(N)nc3ccccc3c2n1CCCCNC(=O)c1ccc(NC(=N)N)cc1 [Example 4, dihydrochloride]
Response: 0.4

Request: Try this molecule next: CCCCc1nc2c(N)nc3ccccc3c2n1CCCCNC(=O)c1ccc(CNC(=N)N)cc1 [Example 5, dihydrochloride]
Response: 0.37

Request: CCCc1nc2c(N)nc3ccccc3c2n1CCCCNC(=O)c1ccc(CNC(=N)N)cc1 [Example 3, dihydrochloride] , same question.
Response: 3.7
